The measurements presented in this section are drawn from PubChem BioAssay (NCI).

- Tested on: SNB-75 CNS
- METHOD SUMMARY: NCI-60 one-dose screen, 48 h (100 = growth as untreated, 0 = no growth, -100 = all killed)
- DETAILS: 10 µM unless noted
This is part of a sample that, as a whole, favours compounds with a hit. Of some 83,000 tested, about 20% had one in any assay. Active and inactive are the calls of the source. The calls were made as follows: active = growth percent below 10; inactive = the rest.
QUANTITY KIND: growth

Here's what some known entries look like.
C/C(=C(\c1ccc(OCCN2CCOCC2)cc1)c1ccc(OC(=O)Cc2ccccc2)cc1)c1ccc(Cl)cc1; 95.7% (inactive)
Cc1nc2ccccc2c(=O)n1-c1ccccc1F; 82.1% (inactive)
CCN(CC)CCn1c(=O)n(C)c2ccccc21; 97% (inactive)
COc1cc(C2C3=C(CCCC3=O)N(CCO)c3cc4c(cc32)CCC4)cc(OC)c1OC (centres undefined); 99.5% (inactive)

Give growth for each listed item.
1. O=C(O)c1cc([N+](=O)[O-])cc([N+](=O)[O-])c1
2. COc1ccc2c(c1)c(-c1nc(-c3cn(C)c4ncccc34)cs1)cn2CCCCN1CCOCC1
3. C[C@]12CC[C@H](O)C[C@@H]1CC[C@@H]1[C@@H]2CC[C@]2(C)OC(=O)CC[C@@H]12
4. COC(=O)C12C3C4C1C1C2C3C41NC(=O)c1csc([C@@H](C[C@H](C(C)C)N(C)C(=O)[C@@H](NC(=O)[C@H]2CCCCN2C)C2CC2)OC(C)=O)n1 (some centres undefined)
5. ClC1OC(Cl)(Cl)C(Cl)(Cl)OC1(Cl)Cl (centres undefined)

1: 86.8% (inactive); 2: 43.6% (inactive); 3: 85.8% (inactive); 4: 45.3% (inactive); 5: 88.3% (inactive)

###

- System: NCI-H226 lung
- METHOD SUMMARY: NCI-60 one-dose screen, 48 h
- DETAILS: 10 µM unless noted
About 83,000 compounds went through this panel and 20% of them were active in at least one assay; those are over-represented in the sample as a whole. The source made the active and inactive calls. The calls were made as follows: active = growth percent below 10; inactive = the rest.
Choose the fitting class; nothing outside active, inactive is accepted.

See these solved cases before continuing.
N#CCC(=O)c1ccccc1; inactive
O=C(O)C(Br)CBr (stereo unspecified); inactive
CC[C@H](C)[C@H](NC(=O)[C@H]1CCCCN1C)C(=O)N(C)[C@H](CCc1nc(C(=O)N[C@@H](Cc2ccccc2)C[C@H](C)C(=O)O)cs1)C(C)C; inactive

Answer briefly: the call reported for `NC(N)=NC(N)=Nc1ccc(Cl)cc1` in this assay.
inactive

Answer briefly: the call reported for `O=c1[nH]c(=O)[nH]c(=O)[nH]1` in this assay.
inactive

Answer briefly: the call reported for CC(Oc1ccc(-c2ccccc2)cc1)C(=O)O (stereo unspecified) in this assay.
inactive

Answer briefly: the call reported for `O=[N+]([O-])c1ccc(P(=O)(O)O)cc1` in this assay.
inactive

Answer briefly: the call reported for CCOC(=O)c1cncn1C(C)c1ccccc1 (stereo unspecified) in this assay.
inactive

Answer briefly: the call reported for `CO[C@@H]([CH2][Hg][O]C(=O)c1ccccc1)[C@@H]([CH2][Hg][O]C(=O)c1ccccc1)OC` in this assay.
inactive

Answer briefly: the call reported for `C[C@]12CCc3sc(Nc4ccc(OC(F)(F)F)cc4)nc3C1=CC[C@@H]1[C@@H]2CC[C@]2(C)C(=O)CC[C@@H]12` in this assay.
inactive

Answer briefly: the call reported for `Cc1ccc(NC2=N[C@]34CC(=O)CC[C@]3(C)[C@H]3CC[C@]5(C)C(=O)CC[C@H]5[C@@H]3C[C@@H]4S2)c(C)c1` in this assay.
inactive

Answer briefly: the call reported for `Cc1ccc(C(=O)O[C@H](C(=O)O)[C@H](OC(=O)c2ccc(C)cc2)C(=O)O)cc1` in this assay.
inactive

Answer briefly: the call reported for COC1C(O)CC(OC2CC(Oc3cc4cc5c(c(O)c4c(O)c3C)C(=O)[C@@H](OC3CC(OC4CC(OC6CC(C)(O)C(OC(C)=O)C(C)O6)C(O)C(C)O4)C(O)C(C)O3)[C@H]([C@H](OC)C(=O)[C@@H](O)[C@@H](C)O)C5)OC(C)C2OC(C)=O)OC1C (stereo partly specified) in this assay.
active

Answer briefly: the call reported for `C#COc1cccc(Nc2ncnc3cc(NC(=O)CF)ccc23)c1` in this assay.
inactive

Answer briefly: the call reported for `O=[N+]([O-])c1ccc2scc3c4ccccc4nc-3c2c1` in this assay.
active

Answer briefly: the call reported for `C=C[Se]CC(=O)/C=C/c1ccccc1` in this assay.
inactive

Answer briefly: the call reported for `C[C@]12CC[C@H]3[C@@H](CC=C4c5nc(-c6ccc(Br)cc6)sc5CC[C@@]43C)[C@@H]1CC[C@@H]2O` in this assay.
inactive

Answer briefly: the call reported for C=CCOC(=O)C(Br)CC (stereo unspecified) in this assay.
inactive

Answer briefly: the call reported for CC1=CC(=O)CCC12CCOC2=O (stereo unspecified) in this assay.
inactive

Answer briefly: the call reported for `CC(=O)Cc1ccc2c(c1)OCO2` in this assay.
inactive

Answer briefly: the call reported for `O=[N+]([O-])c1cc(Br)c(O)c(Br)c1` in this assay.
inactive

###

- Tested on: LOX IMVI melanoma
- METHOD SUMMARY: NCI-60 one-dose screen, 48 h (100 = growth as untreated, 0 = no growth, -100 = all killed)
- DETAILS: 10 µM unless noted
The panel holds about 83,000 compounds, 20% with a hit somewhere; the sample as a whole holds those more often.
QUANTITY KIND: growth (%)
Give bare numbers, in %.

Here's what some known entries look like.
Cc1ccc(C(=O)O[C@H](C(=O)O)[C@H](OC(=O)c2ccc(C)cc2)C(=O)O)cc1; 97
CC1=CC(=O)CCC12CCOC2=O (stereo unspecified); 95.6
Nc1cccnc1; 104
Cc1cc[c-]cc1.Fc1c[c-]c(-c2ccccn2)c(F)c1.[Pt+2].c1ccc([PH+](c2ccccc2)c2ccccn2)cc1; 31.2
CCOC(=O)C1C(C=C(C)C)C1(C)C (stereo unspecified); 104

Continue with the next compound.
For CC[PH+](CC)CC.O=COC1OC([S-])C(OC=O)C(OC=O)C1OC=O.[Au+] (stereo unspecified) the compound record lists growth as -89.4

###

- Tested on: NCI-H226 lung
- METHOD SUMMARY: NCI-60 one-dose screen, 48 h
- DETAILS: 10 µM unless noted
This is part of a sample that, as a whole, favours compounds with a hit. Of some 83,000 tested, about 20% had one in any assay. The source made the active and inactive calls. The calls were made as follows: active = growth percent below 10; inactive = the rest.
Choose the fitting class; nothing outside True = active, False = inactive is accepted.

See these solved cases before continuing.
C=CC[PH+](c1ccccc1)c1ccccc1.C=CC[PH+](c1ccccc1)c1ccccc1.[Pt+2].[S-]c1nc2ccccc2[nH]1.[S-]c1nc2ccccc2[nH]1; True
COc1ccc(N)cc1OC; False
O=C(NC1=NCC[Se]1)c1ccccc1O; False
Cc1cc(C(C)(C)C)ccc1O; False
O=CC1(c2ccccc2)CCN(Cc2ccccc2)CC1; False

Answer briefly: the call reported for `Oc1ccccc1C=NCCN=Cc1ccccc1O` in this assay.
False

###

- Test system: HL-60(TB) leukemia
- METHOD SUMMARY: NCI-60 one-dose screen, 48 h
- DETAILS: 10 µM unless noted
The panel holds about 83,000 compounds, 20% with a hit somewhere; the sample as a whole holds those more often. Active and inactive are the calls of the source. The calls were made as follows: active = growth percent below 10; inactive = the rest.
Choose the fitting class; nothing outside active, inactive is accepted.

C[C@]12CC[C@H]3[C@@H](CC=C4c5nc(N)sc5CC[C@@]43C)[C@@H]1CC[C@@H]2O; inactive
CN1CCC2(CC1)C(C#N)C(=O)NC(=O)C2C#N (configuration not stated); inactive
O=C1CN2CCC1CC2; inactive
Cc1c(C)c(N)c(C)c(C)c1N; inactive
Cc1cc2c(cc1-c1ccnc(/C=C/C(=O)O)c1)C(C)(C)CCC2(C)C; inactive

Answer briefly: the call reported for CC(=O)OC1CC2(O)C(CCC3(C)C(c4ccc(=O)oc4)CCC32O)C2(C)CCC(OC3OC(CO)C(O)C(O)C3O)C=C12 (configuration not stated) in this assay.
active

Answer briefly: the call reported for `Oc1ccccc1C=NCCN=Cc1ccccc1O.[Fe]` in this assay.
inactive

Answer briefly: the call reported for `O=P(O)(Nc1ccccc1)Nc1ccccc1` in this assay.
inactive

Answer briefly: the call reported for `COc1ccn(C)c(=O)c1C#N` in this assay.
inactive

Answer briefly: the call reported for CC1CCNC(C)C1 (configuration not stated) in this assay.
inactive

Answer briefly: the call reported for `O=S(=O)(O)c1ccc(Cl)cc1` in this assay.
inactive

Answer briefly: the call reported for `C[C@]12C[C@H](c3ccoc3)OC(=O)[C@H]1CC[C@@]1(C)[C@@H]2[C@H]2C=C[C@]1(O)C(=O)O2` in this assay.
inactive

Answer briefly: the call reported for `CC[C@H](C)[C@H]1O[C@]2(C=C[C@@H]1C)C[C@@H]1C[C@@H](C/C=C(\C)[C@@H](O[C@H]3C[C@H](OC)[C@@H](O[C@H]4C[C@H](OC)[C@@H](NC)[C@H](C)O4)[C@H](C)O3)[C@@H](C)/C=C/C=C3\CO[C@@H]4[C@H](O)C(C)=C[C@@H](C(=O)O1)[C@]34O)O2` in this assay.
active

Answer briefly: the call reported for `CC1(C)S[C@H]2CC[C@H]3OC(=O)[C@@H]1N23` in this assay.
inactive

Answer briefly: the call reported for `COc1ccc2c(c1)c(-c1nc(-c3cn(C)c4ncccc34)cs1)cn2CCCCN1CCOCC1` in this assay.
inactive

Answer briefly: the call reported for `Cc1cc(N(CCCl)CCCl)ccc1/C=N\NC(=O)c1cccnc1` in this assay.
inactive

Answer briefly: the call reported for `CN1CCN(c2ccc(Cl)cc2)CC1` in this assay.
inactive

Answer briefly: the call reported for `Oc1cc(N2CC2)c(O)cc1N1CC1` in this assay.
inactive

Answer briefly: the call reported for COC1C(O)CC(OC2CC(Oc3cc4cc5c(c(O)c4c(O)c3C)C(=O)[C@@H](OC3CC(OC4CC(OC6CC(C)(O)C(OC(C)=O)C(C)O6)C(O)C(C)O4)C(O)C(C)O3)[C@H]([C@H](OC)C(=O)[C@@H](O)[C@@H](C)O)C5)OC(C)C2OC(C)=O)OC1C (some centres not stated) in this assay.
active
